Tested on: Candida albicans
Assay: Down regulation of ERG11 gene expression in fluconazole resistant Candida albicans A171 at MIC after 2 hrs by qRT PCR analysis relative to control
Type: functional
parameter: fold change (FC)

Below, each entry is followed by its recorded fold change (FC) result.
O=C(/C=C/c1ccc(/C=C/C(=O)c2ccccc2)cc1)c1ccccc1    1.25 - 10
c1ccc(-c2cc(-c3ccc(-c4cc(-c5ccccc5)n[nH]4)cc3)[nH]n2)cc1    1.25 - 10
O=C1NC(c2ccccc2)=CC(c2ccc(C3C=C(c4ccccc4)NC(=O)N3)cc2)N1 (stereo unspecified)    1.25 - 10
S=C1NC(c2ccccc2)=CC(c2ccc(C3C=C(c4ccccc4)NC(=S)N3)cc2)N1 (stereo unspecified)    1.25 - 10
c1ccc(C2=NOC(c3ccc(C4CC(c5ccccc5)=NO4)cc3)C2)cc1 (stereo unspecified)    1.25 - 10

Next up:
Item NC(=S)N1N=C(c2ccccc2)CC1c1ccc(C2CC(c3ccccc3)=NN2C(N)=S)cc1 (stereo unspecified) has what recorded fold change (FC)?
1.25 - 10

###

System: Candida albicans
Assay: Antifungal activity against fluconazole susceptible Candida albicans 004B1 in presence of fluconazole by CLSI protocol based broth microdilution method
Format: functional
// fractional inhibitory concentration index (FICI) lookup, one value per entry

Item O=C(/C=C/c1ccc(/C=C/C(=O)c2ccccc2)cc1)c1ccccc1 has what recorded fractional inhibitory concentration index (FICI)?
0.31 - 1.5

Item O=C1NC(c2ccccc2)=CC(c2ccc(C3C=C(c4ccccc4)NC(=O)N3)cc2)N1 (stereo unspecified) has what recorded fractional inhibitory concentration index (FICI)?
0.13 - 0.38

Item c1ccc(-c2cc(-c3ccc(-c4cc(-c5ccccc5)n[nH]4)cc3)[nH]n2)cc1 has what recorded fractional inhibitory concentration index (FICI)?
0.63 - 1.5

Item S=C1NC(c2ccccc2)=CC(c2ccc(C3C=C(c4ccccc4)NC(=S)N3)cc2)N1 (stereo unspecified) has what recorded fractional inhibitory concentration index (FICI)?
0.13 - 0.31

Item c1ccc(-c2cc(-c3ccccc3)[nH]n2)cc1 has what recorded fractional inhibitory concentration index (FICI)?
0.63 - 2.5

Item NC(=S)N1N=C(c2ccccc2)CC1c1ccccc1 (stereo unspecified) has what recorded fractional inhibitory concentration index (FICI)?
1.97 - 4.28

###

System: Candida albicans
Test: Antifungal activity against fluconazole susceptible Candida albicans 004B1 in presence of fluconazole by CLSI protocol based broth microdilution method
Format: functional
parameter: fractional inhibitory concentration index (FICI)

Item c1ccc(C2=NOC(c3ccccc3)C2)cc1 (stereo unspecified) has what recorded fractional inhibitory concentration index (FICI)?
0.75 - 2

Item O=C1NC(c2ccccc2)=CC(c2ccccc2)N1 (stereo unspecified) has what recorded fractional inhibitory concentration index (FICI)?
0.31 - 1.5

Item c1ccc(C2=NOC(c3ccc(C4CC(c5ccccc5)=NO4)cc3)C2)cc1 (stereo unspecified) has what recorded fractional inhibitory concentration index (FICI)?
0.37 - 0.75

Item NC(=S)N1N=C(c2ccccc2)CC1c1ccc(C2CC(c3ccccc3)=NN2C(N)=S)cc1 (stereo unspecified) has what recorded fractional inhibitory concentration index (FICI)?
0.53 - 2.19

Item SC1=NC(c2ccccc2)=CC(c2ccccc2)N1 (stereo unspecified) has what recorded fractional inhibitory concentration index (FICI)?
0.37 - 1.13

Item O=C(/C=C/c1ccccc1)c1ccccc1 [CHALCONE] has what recorded fractional inhibitory concentration index (FICI)?
0.75 - 4.38
